Cited source: PubChem BioAssay AID248

# Test system: L1210 leukemia ip in BDF1 mice, survival T/C
# Assay notes: NCI In Vivo Anticancer Drug Screen. Data for tumor model L1210 Leukemia (intraperitoneal) in B6D2F1 (BDF1) mice
# Stated conditions: endpoint: mean survival time; dose: 12.5 mg/kg/injection; schedule: Q01DX009 (ip); vehicle: saline with Tween-80; higher = longer survival
Inconclusive results and toxic doses are left out.
Recorded metric: T/C

Query (molecule): CCCCCCC(O)C[N+](=O)[O-] (configuration not stated) ; field requested: T/C 100 % of control

Query (molecule): CC(C)(Br)C(=O)c1ccc([N+](=O)[O-])o1 ; field requested: T/C 97 % of control

Query (molecule): O=C(Nc1ccc(Br)cc1)c1nc(Br)[nH]c1Br ; field requested: T/C 89 % of control

Query (molecule): Cc1cc(Cl)ccc1NC(=O)OCCOc1ccc([N+](=O)[O-])cc1 ; field requested: T/C 107 % of control

Query (molecule): Cc1ccc(C(=O)CCl)c(C)c1 ; field requested: T/C 95 % of control

Query (molecule): COC(=O)C1(C(=O)OC)C(c2ccccc2)C1(C(=O)OC)C(=O)OC ; field requested: T/C 94 % of control

Query (molecule): O=P1(O)[O][Sn]([c]2ccccc2)([c]2ccccc2)[O]1 ; field requested: T/C 97 % of control
